The origin of these recorded values is PubChem BioAssay AID488969.

- test_system: Metabotropic glutamate receptor 8 (Rattus norvegicus)
- method_description: mGluR8 Gi/Go-coupled signaling modulation – cell-based, rat, thallium flux, HTS, primary screen (AID 488969)
- assay_conditions: HEK293 rat mGluR8, GIRK thallium flux, FluoZin2; at 10 µM; stronger effect = higher value; submaximal glutamate (EC20) added with thallium
The full ranking holds about 110,000 compounds; the median of “z-score” is about -0.1, and the highest 2% start at about 2. Only a selection was taken, and the highest values are over-represented in it overall.
experimental_readout: z-score
Answer with a bare number; do not write a unit.

Which measured z-score belongs to COc1cc2c(cc1NC(=O)COc1ccc3ccccc3c1)oc1ccccc12 , tested on Metabotropic glutamate receptor 8 (Rattus norvegicus)?
-0.183

Repeat for the following compound: COc1ccc(C(=O)NNC(=O)CN2CCC(n3nnc4cc(F)ccc43)CC2)cc1
-0.223

Item: Cc1c(C(=S)Nc2ccccc2)cnn1-c1ccccc1
-0.398

Then NS(=O)(=O)c1ccc(CCNC(=O)CSc2ccccc2)cc1 ?
0.222

Next up: CC(=O)Nc1ccc(Oc2cc(C#N)c(C#N)cc2N2CCOCC2)cc1
0.123

Same again, this time with CC1(C)N=C(N)NC(Nc2ccc(Br)cc2)=N1
-0.00115

Entry CC(=O)N(c1nc(CCl)cs1)c1c(C)cc(C)cc1C please
1.43

Repeat for the following compound: COc1cc2c(cc1NC(=O)Nc1cccc(C)c1)oc1ccccc12
2.68

Please do the same for CC(=O)Nc1cccc(Oc2cc(C#N)c(C#N)cc2N2CCCCCC2)c1 as well.
2.07

Note, next up: CC(=O)Nc1ccc(Oc2cc(C#N)c(C#N)cc2N2CCCCCC2)cc1
1.3

Also check Cc1ccc(OCC(=O)Nc2oc(-c3ccccc3)c(-c3ccccc3)c2C#N)cc1
-0.212

====

Kindly state z-score for each of the entries shown.
- test_system: Metabotropic glutamate receptor 8 (Rattus norvegicus) (UniProt P70579)
- Sequence (P70579 whole entry, looked up): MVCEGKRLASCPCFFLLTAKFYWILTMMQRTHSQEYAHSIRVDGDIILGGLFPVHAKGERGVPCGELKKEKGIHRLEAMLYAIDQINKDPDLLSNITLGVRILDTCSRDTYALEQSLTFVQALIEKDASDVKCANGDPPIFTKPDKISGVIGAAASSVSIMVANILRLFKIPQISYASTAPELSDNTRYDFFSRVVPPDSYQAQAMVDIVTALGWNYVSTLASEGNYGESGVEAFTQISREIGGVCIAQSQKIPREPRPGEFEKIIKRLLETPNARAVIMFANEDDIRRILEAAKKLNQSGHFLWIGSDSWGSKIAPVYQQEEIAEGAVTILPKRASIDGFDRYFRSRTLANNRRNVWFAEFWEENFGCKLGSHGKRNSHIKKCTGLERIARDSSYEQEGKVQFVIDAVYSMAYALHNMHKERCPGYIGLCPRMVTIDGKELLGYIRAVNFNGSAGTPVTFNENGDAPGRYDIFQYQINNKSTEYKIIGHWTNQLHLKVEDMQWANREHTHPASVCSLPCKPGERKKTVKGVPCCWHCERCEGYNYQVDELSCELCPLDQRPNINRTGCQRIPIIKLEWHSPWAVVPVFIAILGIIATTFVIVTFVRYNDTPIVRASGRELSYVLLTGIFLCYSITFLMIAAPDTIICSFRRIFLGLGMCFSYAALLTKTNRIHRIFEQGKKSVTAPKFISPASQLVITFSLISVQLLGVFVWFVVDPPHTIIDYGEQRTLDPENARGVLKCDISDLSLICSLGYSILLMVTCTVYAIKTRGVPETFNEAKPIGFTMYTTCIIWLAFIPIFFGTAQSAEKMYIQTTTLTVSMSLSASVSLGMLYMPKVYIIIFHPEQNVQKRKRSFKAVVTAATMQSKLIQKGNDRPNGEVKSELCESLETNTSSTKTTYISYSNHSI
- method_description: mGluR8 Gi/Go-coupled signaling modulation – cell-based, rat, thallium flux, HTS, primary screen (AID 488969)
- assay_conditions: HEK293 rat mGluR8, GIRK thallium flux, FluoZin2; at 10 µM; stronger effect = higher value; submaximal glutamate (EC20) added with thallium
The full ranking holds about 110,000 compounds; the median of “z-score” is about -0.1, and the highest 2% start at about 2. This is one part of a sample in which the highest values are shown more often than they occur.
Write the number on its own, no unit after it.

Metabotropic glutamate receptor 8 (Rattus norvegicus) (UniProt P70579) / z-score / CN(c1ccc(OCC(=O)OCC(=O)Nc2ccc(F)cc2)cc1)S(=O)(=O)c1ccc(Cl)cc1 : value?
-0.231

Can you check CCCC(=O)Nc1c2c(nn1-c1ccc(OC)cc1)CS(=O)C2 (stereo not given) next?
-1.01

Similarly, COc1ccc(OC)c(NC(=O)CSc2nnc(Cn3nnc4ccccc43)n2C)c1 ?
-0.116

// repeat for C=CCNC(=O)c1onc(CSc2ccccc2F)c1C(=O)O and report
-0.015

Now try COC(=O)C1CCN(C(=O)COc2cc3sc(C)nc3c3sccc23)CC1 .
-1.34

Also, COc1ccc(C(=O)N/C(=C\c2cccc3ccccc23)C(=O)NCCc2c[nH]c3ccccc23)cc1OC please.
-1.59

Now this one: N#C/C(=C\c1ccc(-c2cccc(C(F)(F)F)c2)o1)C(=O)Nn1cnnc1
-0.113

What do you have for O=[N+]([O-])c1ccc(N2CCN(S(=O)(=O)c3ccccc3[N+](=O)[O-])CC2)cc1N1CCc2ccccc2C1 ?
-0.00158

Param item: C/C(=N/NC(=O)CNc1ccc(C)cc1)c1ccc(Br)s1
0.214

Try COC(=O)c1ccc(/C=N/NC(=O)CC(=O)NC(C)C)cc1 next.
-0.108

====

- test_system: Metabotropic glutamate receptor 8 (Rattus norvegicus) (UniProt P70579)
- method_description: mGluR8 Gi/Go-coupled signaling modulation – cell-based, rat, thallium flux, HTS, primary screen (AID 488969)
- assay_conditions: HEK293 rat mGluR8, GIRK thallium flux, FluoZin2; at 10 µM; stronger effect = higher value; submaximal glutamate (EC20) added with thallium
The full ranking holds about 110,000 compounds; the median of “z-score” is about -0.1, and the highest 2% start at about 2. This excerpt belongs to a sample that is enriched for the highest values.
Kindly return true if reported z-score is no lower than -0.09; return false if it is lower.

# bool: z-score of Cc1cnc(NC(=O)CSc2ncn(-c3ccccc3)n2)s1 >= -0.09
false

Same read-out for CCOC(=O)N1CCN(c2cc(=O)n(-c3ccc(OCC)cc3)c(=O)[nH]2)CC1 ?
true

Repeat with S=C(NC12CC3CC(CC(C3)C1)C2)N1CCCC1
true

Moving on to Cc1ccccc1NS(=O)(=O)c1ccc(OCCNS(C)(=O)=O)cc1
true

Here is the next molecule: Cc1cccc(C(C)C)c1NC(=O)c1ccc(CN(c2ccccc2)S(=O)(=O)c2ccccc2)cc1
true

Also COc1ccc(NCC(=O)Nc2ccccc2C#N)cc1Cl ?
false

Queued: O=C(c1ccc(Cl)cc1)c1cnc2ccccn12
true

Now consider COc1ccccc1C(OC(=O)c1cccs1)C(=O)NCC1CCCO1 (stereo unspecified) and answer again.
false

Try Cc1ccc(NC(=O)c2c(Cl)n(C)c3ccccc23)cc1 next.
false

Now give it for CCc1cc2cc(C(=O)Nc3ccc(F)cc3)sc2s1 too.
true

Next record, please: Cc1ccccc1NC(=O)CNc1ccc(Cl)c(C(F)(F)F)c1
false

====

- test_system: Metabotropic glutamate receptor 8 (Rattus norvegicus) (UniProt P70579)
- method_description: mGluR8 Gi/Go-coupled signaling modulation – cell-based, rat, thallium flux, HTS, primary screen (AID 488969)
- assay_conditions: HEK293 rat mGluR8, GIRK thallium flux, FluoZin2; at 10 µM; stronger effect = higher value; submaximal glutamate (EC20) added with thallium
In all, about 110,000 compounds were measured (“z-score”: median about -0.1, highest 2% from about 2 on). This excerpt belongs to a sample that is enriched for the highest values.
Could you please report measured z-score for the items listed next?
Answer field: number only, no words.

Tell me the measured z-score of COc1ccccc1N1CCN(Cc2cc(Br)c(O)c3ncccc23)CC1 , please.
3.32

One more compound: COc1ccc(N(CC(=O)Nc2nccs2)S(=O)(=O)c2c(C)nn(C)c2C)cc1
0.0495

Consider next the compound O=P(CCNCc1ccco1)(c1ccccc1)c1ccccc1 in the same way.
0.267

Input Cc1cccc(NC(=O)CN(c2ccc(C(C)C)cc2)S(=O)(=O)c2c(C)nn(C)c2C)n1
2.21

Next compound: COc1ccccc1N1CCN(Cc2ccc(O)c3ncccc23)CC1
-0.0396

How about Cc1nn(C)c(C)c1S(=O)(=O)N(CC(=O)NC1CCCCCC1)c1ccc(C(C)C)cc1 ?
-0.146

Now try OCCCCNCc1ccc(OCc2ccccc2Cl)cc1 .
2.17

And then COc1ccc(N(CC(=O)Nc2nc3ccc(C)cc3s2)S(=O)(=O)c2c(C)nn(C)c2C)cc1 , what is it?
2.44

Next entry: COc1ccc2nc(NC(=O)CN(c3ccc(C)cc3)S(=O)(=O)c3c(C)nn(C)c3C)sc2c1
0.03

Okay, and CCOc1ccc(CN(Cc2ccco2)S(=O)(=O)c2ccc(-n3cnnn3)c(OC)c2)cc1 ?
2.75

Another: O=C(CSc1ccc(Cl)cc1)N1CCN(c2ncc(C(F)(F)F)cc2Cl)CC1
-0.0561

Moving on to C=CCn1c(COc2ccc(Cl)cc2)nnc1SCC(=O)N1CC(=O)Nc2ccccc21
-0.735

Another compound: N#CCCn1cc(/C=N/O)c(-c2ccccc2)n1
0.0606

Would you kindly repeat that for O=C(C(=O)N1CCCc2ccccc21)c1c[nH]c2ccccc12 ?
0.104

Again, but for CCN(CC)c1ccc2cc(-c3nnc(-c4ccncc4)o3)c(=O)oc2c1
-1.17

What do you have for Cc1ccc(S(=O)(=O)N2CCOCC2)cc1NC(=O)COC(=O)CSc1ccc(Br)cc1C ?
-0.132

// same read-out, input: OCCCCNCc1ccc(OCc2ccc(Cl)cc2Cl)cc1
1.19

Proceed to COc1cc(S(=O)(=O)N(Cc2ccc(C)cc2)Cc2ccco2)ccc1-n1cnnn1
0.205

Also check OCCCCNCc1ccc(OCc2ccccc2)cc1
0.0747

And the next one, CCCOC(=O)c1ccc(NS(=O)(=O)c2cccs2)cc1 ?
0.0163

Same read-out for CCN(CC)c1ccc2cc(C=O)c(=O)oc2c1 ?
17.6

Request: COCCCn1c(SCc2nnc(-c3ccccc3)o2)nc2sc3c(c2c1=O)CCC3
-0.256

====

- test_system: Metabotropic glutamate receptor 8 (Rattus norvegicus) (UniProt P70579)
- method_description: mGluR8 Gi/Go-coupled signaling modulation – cell-based, rat, thallium flux, HTS, primary screen (AID 488969)
- assay_conditions: HEK293 rat mGluR8, GIRK (G protein-gated inwardly rectifying potassium channel) thallium flux, FluoZin2; at 10 µM; stronger effect = higher value; submaximal glutamate (EC20) added with thallium
In all, about 110,000 compounds were measured (“z-score”: median about -0.1, highest 2% from about 2 on). For the sample, the highest values were picked, then their nearest neighbours and some compounds at random.
We use -0.01 as the dividing line for z-score: on or above the line is Satisfied, below is Not satisfied.

Decide: is the reported value of z-score for O=C1c2ccccc2C(=O)N1CCn1c(=O)oc2ccccc21 equal to or greater than -0.01?
Satisfied

Now give it for CCCOc1ccccc1N/C(=N/c1nc(C)cc(C)n1)NC(=O)COc1ccc(OC)cc1 too.
Satisfied

Okay, and O=C(COC(=O)c1cn(-c2ccccc2)nc1-c1ccccc1)c1ccc([N+](=O)[O-])cc1 ?
Not satisfied

// next record CCOc1[nH]n(-c2ccc(Cl)cc2)c(=O)c1C=Nc1ccc(Cl)cc1
Satisfied

Next: O=C(Nc1cccc(-c2nnc(-c3ccccc3)o2)c1)C1CCCO1 (configuration not stated)
Satisfied

Then what about the molecule CCOc1ccc(N(CC(=O)NCC2CCCO2)C(=O)CCC(=O)Nc2ccccn2)cc1 (configuration not stated) ?
Not satisfied

Now this one: Cc1oc(-c2ccc(Cl)cc2)nc1CN1CCC(C(=O)N2CCN(Cc3ccccc3)CC2)CC1
Satisfied

And then COc1ccc(CCNC(=O)C2CCCN(Cc3nc(-c4cccc(Cl)c4)oc3C)C2)cc1OC (configuration not stated) , what is it?
Satisfied

Also, O=C(CCCOc1ccc(Cl)cc1Cl)Nc1cccnc1 please.
Not satisfied

Further, for O=C(Nc1cccc(O)c1)c1cc2nc(-c3ccccc3)cc(-c3ccccc3)n2n1 ?
Satisfied

Then what about the molecule O=C(CCCOc1ccc(Cl)cc1Cl)Nc1ccncc1 ?
Satisfied

Follow-up item: CCc1ccc(-c2nc(CN3CCCC(C(=O)NCCc4ccc(OC)c(OC)c4)C3)c(C)o2)cc1 (configuration not stated)
Satisfied

Then this molecule: O=C(Nc1ccc2oc(-c3ccccc3)nc2c1)C1CCCO1 (configuration not stated)
Not satisfied

// next record CCc1ccc(-c2nc(CN3CCC(C(=O)N4CCN(c5ccccc5)CC4)CC3)c(C)o2)cc1
Satisfied

Try CCOc1[nH]n(-c2ccccc2)c(=O)c1C=Nc1ccc(Cl)cc1 next.
Satisfied

Try this molecule next: CCOC1CC(C)(C)NC(=S)N1 (configuration not stated)
Not satisfied

Same question for COCCCNC(=O)/C(=C\c1cccn1C)NC(=O)c1cccs1 please.
Satisfied

Lookup Cc1scc(-c2n[nH]c(=S)n2C(C)c2ccccc2)c1C (configuration not stated)
Not satisfied

Follow-up item: CCN(CCCNC(=O)CCNC(=O)Cn1ccc2ccccc2c1=O)c1ccccc1
Not satisfied

# iterate: COc1ccccc1NC(=S)NC(=O)CCCOc1ccc(Cl)cc1Cl
Not satisfied

// next record C=CC(=O)Nc1ccc(Br)cc1
Satisfied
